Listing of recorded pIC50 by entry.
- EXPERIMENT: Inhibition of recombinant perforin-mediated lysis of human Jurkat T cells by 51Cr release assay
pIC50: −log10 of the molar value.
PARAMETER MEASURED: pIC50

>>> df
                              smiles_record  qualifier_sign  observed_result
0  COc1ccc2cc(/C=C3\OC(=O)c4c3cc(C)[nH]c4=S)[nH]c2c1               =             5.51
1    Cc1cc2c(c(=S)[nH]1)C(=O)O/C2=C\c1ccoc1               <             4.70
2  Cc1cc2c(c(=S)[nH]1)C(=O)O/C2=C\c1cc2ccccc2s1               =             5.02
3  Cc1cc2c(c(=O)[nH]1)C(=O)O/C2=C\c1ccc(-c2ccccc2)s1               =             5.30
4  COc1ccc2cc(/C=C3\OC(=O)c4c3cc(C)[nH]c4=S)sc2c1               =             5.27
5  Cc1cc2c(c(=S)[nH]1)C(=O)O/C2=C\c1cccc2cc[nH]c12               =             5.39
6  Cc1cc2c(c(=S)[nH]1)C(=O)O/C2=C\c1cc2ccccc2n1C               <             4.70
7  Cc1cc2c(c(=S)[nH]1)C(=O)O/C2=C\c1cn(C)c2ccccc12               =             5.37
8  COc1cccc2cc(/C=C3\OC(=O)c4c3cc(C)[nH]c4=S)oc12               =             5.52
9  Cc1cc2c(c(=O)[nH]1)C(=O)O/C2=C\c1ccc[nH]1               <             4.70

====

- EXPERIMENT: Inhibition of recombinant perforin-mediated lysis of human Jurkat T cells by 51Cr release assay
Recorded measurements of IC50, one per entry
PARAMETER MEASURED: IC50 (µM)

>>> print(df.to_string())
                               smiles_record  qualifier_sign  observed_result
 0  COc1ccc2scc(/C=C3\OC(=O)c4c3cc(C)[nH]c4=S)c2c1               =              5.1
 1  Cc1cc2c(c(=O)[nH]1)C(=O)O/C2=C\c1csc2ccccc12               =              8.5
 2    Cc1cc2c(c(=S)[nH]1)C(=O)O/C2=C\c1ccco1               =              4.4
 3    Cc1cc2c(c(=S)[nH]1)C(=O)O/C2=C\c1ccsc1               >               20
 4  Cc1cc2c(c(=S)[nH]1)C(=O)O/C2=C\c1ccc[nH]1               >               20
 5  COc1cc2cc(/C=C3\OC(=O)c4c3cc(C)[nH]c4=S)oc2cc1OCc1ccccc1               =              5.1
 6  Cc1cc2c(c(=S)[nH]1)C(=O)O/C2=C\c1coc2ccccc12               >               20
 7  Cc1cc2c(c(=S)[nH]1)C(=O)O/C2=C\c1ncc[nH]1               >               20
 8    Cc1cc2c(c(=S)[nH]1)C(=O)O/C2=C\c1cccs1               =              8.6
 9  Cc1cc2c(c(=S)[nH]1)C(=O)O/C2=C\c1ccc(F)cc1               >               20
10  COc1ccc2cc(/C=C3\OC(=O)c4c3cc(C)[nH]c4=S)oc2c1               =              7.2
11  COc1ccc2c(/C=C3\OC(=O)c4c3cc(C)[nH]c4=S)csc2c1               =              4.7
12  COc1ccc2sc(/C=C3\OC(=O)c4c3cc(C)[nH]c4=S)cc2c1               =             13.1
13  CSc1ccc(/C=C2\OC(=O)c3c2cc(C)[nH]c3=S)cc1               >               20
14  Cc1cc2c(c(=S)[nH]1)C(=O)O/C2=C\c1ccc(-c2ccccc2)s1               =              3.4
15  COc1cccc2oc(/C=C3\OC(=O)c4c3cc(C)[nH]c4=S)cc12               =              6.7
16  Cc1cc2c(c(=S)[nH]1)C(=O)O/C2=C\c1c[nH]c2ccccc12               >               20
17  Cc1cc2c(c(=S)[nH]1)C(=O)O/C2=C\c1ccc(-c2ccccc2)o1               =                4
18  Cc1cc2c(c(=O)[nH]1)C(=O)O/C2=C\c1cn(C)c2ccccc12               >               20
19  Cc1cc2c(c(=O)[nH]1)C(=O)N/C2=C\c1ccc(-c2ccccc2)s1               >               20
20  Cc1cc2c(c(=O)[nH]1)C(=O)O/C2=C\c1ccc(C)o1               >               20
21  Cc1cc2c(c(=S)[nH]1)C(=O)O/C2=C\c1ccc(Cl)cc1               >               20
22  CC(=O)Nc1ccc(/C=C2\OC(=O)c3c2cc(C)[nH]c3=S)cc1               >               20
23  Cc1cc2c(c(=S)[nH]1)C(=O)O/C2=C\c1cc2ccccc2[nH]1               =              1.3
24  Cc1cc2c(c(=S)[nH]1)C(=O)O/C2=C\c1csc2ccc(Br)cc12               =              7.5
25  Cc1cc2c(c(=S)[nH]1)C(=O)O/C2=C\c1cc2ccccc2o1               =              8.2
26  Cc1cc2c(c(=S)[nH]1)C(=O)O/C2=C\c1ccc(C)s1               =              7.2
27   Cc1cc2c(c(=S)[nH]1)C(=O)O/C2=C\c1ccccc1               >               20
28  COc1ccc2[nH]c(/C=C3\OC(=O)c4c3cc(C)[nH]c4=S)cc2c1               =              4.6
29  COc1ccc2oc(/C=C3\OC(=O)c4c3cc(C)[nH]c4=S)cc2c1               =              2.4
30  Cc1cc2c(c(=O)[nH]1)C(=O)O/C2=C\c1cc2ccccc2s1               =              4.6
31  Cc1cc2c(c(=S)[nH]1)C(=O)O/C2=C\c1cc2cc(OCc3ccccc3)ccc2[nH]1               >               20
32   Cc1cc2c(c(=S)[nH]1)C(=O)O/C2=C\c1cccn1C               >               20
33  COc1cc2cc(/C=C3\OC(=O)c4c3cc(C)[nH]c4=S)[nH]c2cc1OCc1ccccc1               >               20
34  Cc1cc2c(c(=S)[nH]1)C(=O)O/C2=C\c1ccc(-c2ccccc2)cc1               >               20
35  Cc1cc2c(c(=S)[nH]1)C(=O)O/C2=C\c1ccc(C(F)(F)F)cc1               >               20
36  Cc1cc2c(c(=O)[nH]1)C(=O)N/C2=C\c1ccc(C)o1               >               20
37  Cc1ccc(/C=C2\OC(=O)c3c2cc(C)[nH]c3=S)cc1               >               20
38  Cc1cc2c(c(=S)[nH]1)C(=O)O/C2=C\c1csc(-c2ccccc2)c1               >               20
39  Cc1cc2c(c(=S)[nH]1)C(=O)O/C2=C\c1ccc(OC(F)(F)F)cc1               >               20
40  COc1cccc2scc(/C=C3\OC(=O)c4c3cc(C)[nH]c4=S)c12               =              3.8
41  Cc1cc2c(c(=S)[nH]1)C(=O)O/C2=C\c1ccc(N(C)C)cc1               >               20
